System: MCF7 breast
Assay: NCI-60 one-dose screen, 48 h
Settings: 10 µM unless noted
This is part of a sample that, as a whole, favours compounds with a hit. Of some 83,000 tested, about 20% had one in any assay. Calls of active or inactive are those of the source. How the source made its calls: active means growth percent below 10; inactive means the rest.
Please reply with one of these outcomes: active, inactive

Hi team, can someone confirm the assay call for CC(=O)n1c(-c2ccc(Cl)cc2)nc2c(c1=O)C(c1ccc(Cl)cc1)c1sc3c(Cl)cccc3c1O2 (centres undefined) ?
active

***
Outcome? Cc1ccc(S(=O)(=O)Oc2cc(OS(=O)(=O)c3ccc(C)cc3)cc(OS(=O)(=O)c3ccc(C)cc3)c2)cc1
inactive

Just curious, what result did CNC(=O)c1cc(Oc2ccc3nc(Nc4ccc(Cl)c(C(F)(F)F)c4)ccc3c2)ccn1 get here?
inactive

Could you kindly confirm the outcome this assay logged for CC(=O)C(C)Cc1cc2c(cc1C)C(C)(C)CCC2(C)C (centres undefined) ?
inactive

Dear colleague, could you share the recorded outcome for O=C(O)c1ccc2c(c1Cl)C(=O)c1ccccc1C2=O when you have a moment?
inactive

Recorded test call requested for Cc1ccc(Nc2ccc(Nc3ccc(C)cc3)c3c2C(=O)c2cccc(O)c2C3=O)cc1
inactive

Dear all, I need the recorded test outcome for C#Cc1cccc(NC(=O)c2ccc(NC(=O)CCl)cc2)c1 , thank you.
active

Assay outcome for COC(=O)[C@]12CC[C@@H](C)[C@H](C)[C@@H]1C1=CC[C@@H]3[C@@]4(C)C(C=O)=C[C@@](C)(CO)[C@@H]4[C@H](O)C[C@@]3(C)[C@]1(C)CC2 : what was it?
active

Name the outcome recorded for NC(=N\N=C/c1ccccc1[N+](=O)[O-])/C(N)=N\N=C/c1ccccc1[N+](=O)[O-] in the assay.
inactive

Hi team, can someone confirm the assay call for COc1cc2ncn3c(=O)c4c5c(sc4nc3c2cc1OC)CCCC5 ?
inactive

What is the recorded call for this compound in the test? FC(F)(F)c1cc(Nc2ccc3cc(OCCCN4CCOCC4)ccc3n2)ccc1Cl
active

Returns: the outcome recorded for COc1cc(C2CC(c3cc(OC)c(OCCCOc4ccc(-n5c(/C=C/c6ccccc6)nc6ccccc6c5=O)cc4)c(OC)c3)=NO2)cc(OC)c1OC (centres undefined) in this assay.
inactive

Name the outcome recorded for NS(=O)(=O)c1ccc(-n2nc(C(=O)N/N=C\c3ccc(F)cc3)cc2-c2ccc(Cl)cc2)cc1 in the assay.
inactive

Hey, what did the test say about N#CCN1C(=O)C2C3=C(CCCC3)SC2N=C1CN1CCCC1 (centres undefined) ?
inactive

Dear all, I need the recorded test outcome for CC(C)CC(NC(=O)CN(Cc1ccccc1)S(C)(=O)=O)C(=O)O (centres undefined) , thank you.
inactive

Entry Cc1ccc(Cl)cc1NC(=O)c1cc2ccccc2cc1O : call = ?
active

Identify the outcome logged in this assay for the compound shown: CCCCN(CCCC)CC(C)(C)C(O)c1ccc(OC)c2ccccc12 (centres undefined)
inactive

Given Oc1ccc(CN2CCC(N3CCOCC3)CC2)c2cccnc12 , state the outcome it received in this test.
active

Call for entry COc1cc(/C=C/C(=O)N2CCN(C(=O)c3cc(OC)c(OC)c(OC)c3)CC2)ccc1OCCCN1C(=O)c2cccc3cccc(c23)C1=O :
inactive
